- Tested system: T1, CD123 Protein, His Tag, Acro Biosciences Cat. No. ILA-H52H6 (Homo sapiens (Human), UniProt P26951 19-305)
- T1 construct: Bought protein; not shown: His tag
- T1 sequence: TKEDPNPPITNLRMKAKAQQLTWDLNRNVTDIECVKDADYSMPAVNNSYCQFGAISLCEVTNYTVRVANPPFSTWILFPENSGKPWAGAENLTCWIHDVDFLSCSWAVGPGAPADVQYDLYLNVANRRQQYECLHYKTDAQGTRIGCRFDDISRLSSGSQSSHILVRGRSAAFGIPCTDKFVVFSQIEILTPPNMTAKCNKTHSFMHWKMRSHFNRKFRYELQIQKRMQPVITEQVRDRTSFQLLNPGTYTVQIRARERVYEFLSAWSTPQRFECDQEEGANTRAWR
- Assay text: BLI, IgG on anti-human Fc sensor, 50 nM CD123, pH 7.4 and pH 5.4

# Binder, binding result
rows = [
    ("MYT2785 (antibody, V domains shown, IgG) VH: QVQLVQSGAEVKKPGASVKVSCKASGYIFTSSIMHWVRQAPGQGLEWIGYIKPYNDGTKYNEKFKGRATLTSDRSTSTAYMELSSLRSEDTAVYYCAREGGNDYYDTMDYWGQGTLVTVSS VL: DIQMTQSPSSLSASVGDRVTITCRASQDINSYLSWFQQKPGKAPKTLIYRHNRLVDGVPSRFSGSGSGNDYTLTISSLQPEDFATYYCLQYDAFPYTFGQGTKVEIK", "binds"),
    ("MYT1253 (antibody, V domains shown, IgG) VH: QVQLVQSGAEVKKPGASVKVSCKASGHIFTSSIMHWVRQAPGQGLEWIGYIKPYNDGTKYNEKFKGRATLTSDRSTSTAYMELSSLRSEDTAVYYCAREGGNDYYDTMDYWGQGTLVTVSS VL: DIQMTQSPSSLSASVGDRVTITCRASQDINSYLSWFQQKPGKAPKTLIYRVNRLVDGVPSRFSGSGSGNDYTLTISSLQPEDFATYYCLQYDAFPYTFGQGTKVEIK", "binds"),
    ("MYT1276 (antibody, V domains shown, IgG) VH: QVQLVQSGAEVKKPGASVKVSCKASGYIFTSSIMHWVRQAPGQGLEWIGYIKPYNDGTKYNEKHKGRATLTSDRSTSTAYMELSSLRSEDTAVYYCAREGGNDYYDTMDYWGQGTLVTVSS VL: DIQMTQSPSSLSASVGDRVTITCRASQDINSYLSWFQQKPGKAPKTLIYRVNRLVDGVPSRFSGSGSGNDYTLTISSLQPEDFATYYCLQYDAFPYTFGQGTKVEIK", "binds"),
]
